Data credit: patent US20150064204A1

target or system: T1, human GITR (human, UniProt Q9Y5U5 26-241)
T1 construct: also called TNFRSF18; Glucocorticoid-induced TNFR-related gene
T1 sequence: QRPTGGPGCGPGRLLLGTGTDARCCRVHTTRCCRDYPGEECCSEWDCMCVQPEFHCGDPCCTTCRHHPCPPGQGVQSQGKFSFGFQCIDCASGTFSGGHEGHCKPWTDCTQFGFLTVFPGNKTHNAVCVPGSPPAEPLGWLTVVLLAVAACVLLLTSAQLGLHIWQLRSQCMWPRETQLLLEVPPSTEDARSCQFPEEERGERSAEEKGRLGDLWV
assay text: flow cytometry on activated human T cells
measured property: EC50 (µg/mL)
# value in µg/mL; strip the unit string

The examples below pair each entry with its known result.
>  <binder>
5H7v14 (antibody, human IgG1, kappa, V domains shown, Engineered variant; also called Ab34; SS-16924) VH: QVQLQESGPGLVKPSETLSLTCTVSGGSISSGGYFWSWIRQPPGKGLEWIGYIYYSGTTYYNPSLKSRVTISIDTSKNQFSLKLSSVTAADTAVYYCARDLFYYDSSGPRGFEPWGQGTLVTVSS VL: EIVLTQSPGTLSLSPGERATLSCRASQTVSSNYLAWYQQKPGQAPRLLIYGSSTRATGIPDRFSGSGSGTDFTLTISRLEPEDFAVYYCQQYESSPWTFGQGTKVEIKR

>  <unit>
µg/mL

>  <EC50>
0.995

$$$$
>  <binder>
9H6v2 (antibody, human IgG1, kappa, V domains shown, Engineered variant; also called Ab45; SS-16944) VH: QVQLVESGGGVVQPGRSLRLSCVASGFTFSSYGMHWIRQAPGKGLEWVAVIWYEGSNKYYADSVKGRFTISRDNSKNTLYLQMNSLRAEDTAVYYCARGGRLGKDYYSGMDVWGQGTTVTVSS VL: DIQMTQSPSSLSASVGDRVTITCRASQGIRNDLGWYQQKPGKAPKLLIYATSSLQSGVPSRFSGSGSGTEFTLTISSLQPEDFATYYCLQHNTYPWTFGQGTKVEIKR

>  <unit>
µg/mL

>  <EC50>
0.423

$$$$

Query binder follows.
## Task Name the recorded EC50 for 33C9v1 (antibody, human IgG1, kappa, V domains shown, Engineered variant; also called Ab50; SS-16948) VH: QVQVVESGGGVVQPGRSLRLSCAASGFTFSSYGMHWVRQAPGKGLEWVSVIWYEGSNKYYADSVKGRFTISRDNSKNTLYLQMNSLRAEDTAVYYCARGGLLGYYYYYGMDVWGQGTTVTVSS VL: DIQMTQSPSSLSASVGDRVTITCRASQGIRNDLGWYQQKPGKAPKLLIYDASSLQSGVPSRFSGSGSGTEFTLTISSLQPEDFATYYCLQHHSYPWTFGQGTKVEIKR .
## Result 0.078
